Each entry below carries its reported hERG current change (%, negative = inhibition) at 10uM.
- system_under_test: human ether-à-go-go-related gene (hERG) potassium channel (human);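 further: peak tail current of the secondary pulse compared with the same well before compound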
- protocol_text: primary screen, population patch clamp on CHO cells stably expressing hERG; higher = less effect of the substance
Out of some 310,000 compounds screened, about 14,000 (4.5%) showed an effect of 50% or more. The effect is printed as a negative number. Many of the other results were omitted from the sample, so strong results are more common in it than they were.
Numeric answer only, unit % assumed.

Below, 2 compounds whose answers are already recorded.
compound | numeric_readout
Cc1ccc2nc(N/N=C\c3ccc([N+](=O)[O-])o3)nc(-c3ccccc3)c2c1 | -72.6
CCNc1nc(NCC)nc(N/N=C/c2ccc(OC)cc2)n1 | 6.24

For the next question, use this compound.
Per the record, "CCCCN(CCCC)CCNC(=O)CSCc1ccc(C)cc1.O=C(O)C(=O)O" has hERG current change (%, negative = inhibition) at 10uM of -63.2

----------
Entries and their hERG current change (%, negative = inhibition) at 10uM values follow.
- system_under_test: human ether-à-go-go-related gene (hERG) potassium channel (human);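 further: peak tail current of the secondary pulse compared with the same well before compound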
- protocol_text: primary screen, population patch clamp on CHO cells stably expressing hERG; higher = less effect of the substance
Among all 310,000 compounds or so, about 14,000 (4.5%) showed an effect of 50% or more. Effects have a minus sign here. Only a selection was taken, and strong results are over-represented in it overall.
Record the value in %, omitting the unit from your answer.

compound | system_under_test | numeric_readout
Cl.O=C(CN1CCOCC1)c1ccc(Br)cc1 | human ether-à-go-go-related gene (hERG) potassium channel (human) | 18
Cc1ccc(S(=O)(=O)/N=C2\C=C(Nc3cccc(C(=O)O)c3)C(=O)c3ccccc32)c(C)c1 | human ether-à-go-go-related gene (hERG) potassium channel (human) | 27.9

What the record says about "Cc1cccc(NS(=O)(=O)c2cccc(C(=O)N3CCCC3)c2)c1" : hERG current change (%, negative = inhibition) at 10uM is 4.7

Measured hERG current change (%, negative = inhibition) at 10uM, "Cc1cc(C)c2nc(N3CCCN(C(=O)c4cnccn4)CC3)c(C#N)cc2c1" : -38.5

// COc1ccc(N2CCN(C3CC(=O)N(c4ccc5c(c4)OCCO5)C3=O)CC2)cc1 (centres unmarked) : hERG current change (%, negative = inhibition) at 10uM value = -2.06

----------
- system_under_test: human ether-à-go-go-related gene (hERG) potassium channel (human, UniProt Q12809);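 further: peak tail current of the secondary pulse compared with the same well before compound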
- Sequence (Q12809 whole entry, looked up): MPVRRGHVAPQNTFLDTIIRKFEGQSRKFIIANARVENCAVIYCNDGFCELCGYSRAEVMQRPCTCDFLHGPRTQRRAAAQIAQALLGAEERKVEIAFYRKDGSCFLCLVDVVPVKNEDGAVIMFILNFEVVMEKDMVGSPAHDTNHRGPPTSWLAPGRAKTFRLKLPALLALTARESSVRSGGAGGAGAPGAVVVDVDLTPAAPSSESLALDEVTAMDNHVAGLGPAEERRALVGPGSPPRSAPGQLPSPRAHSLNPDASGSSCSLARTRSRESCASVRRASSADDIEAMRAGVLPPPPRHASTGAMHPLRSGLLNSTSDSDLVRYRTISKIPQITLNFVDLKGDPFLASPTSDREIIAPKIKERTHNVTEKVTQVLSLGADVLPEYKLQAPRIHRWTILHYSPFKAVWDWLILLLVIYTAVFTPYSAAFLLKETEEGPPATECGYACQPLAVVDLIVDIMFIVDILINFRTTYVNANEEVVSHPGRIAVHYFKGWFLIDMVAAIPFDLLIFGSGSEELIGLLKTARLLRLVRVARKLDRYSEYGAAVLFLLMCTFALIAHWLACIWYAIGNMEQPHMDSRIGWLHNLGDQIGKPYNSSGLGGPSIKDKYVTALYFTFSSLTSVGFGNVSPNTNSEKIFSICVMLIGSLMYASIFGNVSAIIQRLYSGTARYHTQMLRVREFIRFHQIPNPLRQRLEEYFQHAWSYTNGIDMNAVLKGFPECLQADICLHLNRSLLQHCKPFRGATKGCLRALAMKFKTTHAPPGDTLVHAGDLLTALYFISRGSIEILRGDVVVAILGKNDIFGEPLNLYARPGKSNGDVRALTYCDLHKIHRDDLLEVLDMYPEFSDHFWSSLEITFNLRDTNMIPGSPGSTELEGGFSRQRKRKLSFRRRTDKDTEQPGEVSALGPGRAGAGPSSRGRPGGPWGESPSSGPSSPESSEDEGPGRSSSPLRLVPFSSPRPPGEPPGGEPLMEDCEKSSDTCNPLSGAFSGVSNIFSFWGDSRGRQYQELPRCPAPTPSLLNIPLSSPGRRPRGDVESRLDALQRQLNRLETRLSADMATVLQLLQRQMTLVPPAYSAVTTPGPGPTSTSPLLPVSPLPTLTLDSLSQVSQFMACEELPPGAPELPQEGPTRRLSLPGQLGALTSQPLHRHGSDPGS
- protocol_text: primary screen, population patch clamp on CHO cells stably expressing hERG; higher = less effect of the substance
About 14,000 (4.5%) of roughly 310,000 compounds showed an effect of 50% or more. Effects have a minus sign here. Shown is part of a subset that was picked to be rich in strong results.
This section presents molecules with their documented hERG current change (%, negative = inhibition) at 10uM values.
Write the value in % as a bare number.

// field: hERG current change (%, negative = inhibition) at 10uM; key: Cc1ccccc1C1CCCN(Cc2nc(CC3CC3)no2)C1 (stereo not drawn) ; value = -12.7

For "COc1ccccc1OCc1ccc(C(=O)c2ccccc2)cc1" the molecule record lists hERG current change (%, negative = inhibition) at 10uM as 17.1

hERG current change (%, negative = inhibition) at 10uM measured on c1ccc(CN2CCCC3(CCCN(Cc4nc(COc5ccccc5)no4)C3)C2)cc1 (stereo not drawn) = -69.3

# hERG current change (%, negative = inhibition) at 10uM of "CC(=O)c1ccc(OCc2ccc(C(=O)c3ccccc3)cc2)cc1" = 0.433

So, "O=C(COC(=O)C1CCN(c2ccc(C(F)(F)F)cn2)CC1)c1ccc(F)cc1" ? Its hERG current change (%, negative = inhibition) at 10uM was -0.831

Lab note: measured hERG current change (%, negative = inhibition) at 10uM of "COc1ccccc1CN1C[C@@H]2C[C@@H](c3ccccc3C)N3CCC[C@@]23C1=O" was 17.4
